Biological target: T1, Recombinant DR3-Fc (R&D Systems, cat. #943-D3) (UniProt Q93038 25-199, limits assumed)
T1 construct: dimeric MW~92 kDa; also called DR3 receptor; Fc-DR3; not shown: Fc part of the bought fusion
T1 sequence (looked up): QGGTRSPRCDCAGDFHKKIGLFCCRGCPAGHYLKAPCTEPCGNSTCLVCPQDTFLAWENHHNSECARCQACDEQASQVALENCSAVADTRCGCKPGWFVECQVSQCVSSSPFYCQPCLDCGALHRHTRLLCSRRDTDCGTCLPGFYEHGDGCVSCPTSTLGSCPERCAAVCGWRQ
Test: ELISA, DR3-Fc immobilized
experimental.endpoint: Rel EC50

### Prompt Dear colleague, please send me the reported Rel EC50 for TL1W37 (His-TEV-TL1A L123E) (ligand, also called TL1W37 (L123E)) HHHHHHENLYFQGLKGQEFAPSHQQVYAPLRADGDKPRAHLTVVRQTPTQHFKNQFPALHWEHEEGLAFTKNRMNYTNKFLLIPESGDYFIYSQVTFRGMTSECSEIRQAGRPNKPDSITVVITKVTDSYPEPTQLLMGTKSVCEVGSNWFQPIYLGAMFSLQEGDKLMVNVSDISLVDYTKEDKTFFGAFLL when you can.
### Response 16.1 ratio (head: nM)

### Prompt Dear colleague, please send me the reported Rel EC50 for TL1W106 (His-TEV-TL1A T185D) (ligand, also called TL1W106 (T185D)) HHHHHHENLYFQGLKGQEFAPSHQQVYAPLRADGDKPRAHLTVVRQTPTQHFKNQFPALHWEHELGLAFTKNRMNYTNKFLLIPESGDYFIYSQVTFRGMTSECSEIRQAGRPNKPDSITVVITKVDDSYPEPTQLLMGTKSVCEVGSNWFQPIYLGAMFSLQEGDKLMVNVSDISLVDYTKEDKTFFGAFLL when you can.
### Response 4.7 ratio (head: nM)

### Prompt Dear colleague, please send me the reported Rel EC50 for TL1W32 (His-TEV-hTL1A 72-251 Y188A) (ligand, also called TL1W32 (Y188A)) HHHHHHENLYFQGLKGQEFAPSHQQVYAPLRADGDKPRAHLTVVRQTPTQHFKNQFPALHWEHELGLAFTKNRMNYTNKFLLIPESGDYFIYSQVTFRGMTSECSEIRQAGRPNKPDSITVVITKVTDSAPEPTQLLMGTKSVCEVGSNWFQPIYLGAMFSLQEGDKLMVNVSDISLVDYTKEDKTFFGAFLL when you can.
### Response 21.6 ratio (head: nM)
